- System: Cavia porcellus
- protocol_notes: Platelet-activating factor-antagonist activity was assessed in guinea pig bronchoconstriction assay through peroral administration at a dose of 50 mg/kg at 6 hr
- Format: functional
- condition_summary: Lung, route oral
metric_name: inhibition in vivo at 50 mg/kg (%)

> print(dat)
                              smiles.string                     metric.name  meas.value
1  C=CCc1cc(C(=O)N[C@H](C)CCCc2cccnc2)ccc1-c1ccc(OC)c(OC)c1  inhibition in vivo at 50 mg/kg          26
2  COc1ccc(-c2ccc(C(=O)N[C@H](C)CCCc3cccnc3)cc2Br)cc1OC  inhibition in vivo at 50 mg/kg          59
3  COc1ccc(-c2ccc(C(=O)NCCCCc3cccnc3)cc2Br)cc1OC  inhibition in vivo at 50 mg/kg           1
4  COc1ccc(-c2ccc(C(=O)NCCCCc3cccnc3)cc2OC)cc1OC  inhibition in vivo at 50 mg/kg          13
5  COc1ccc(-c2ccc(C(=O)NCCCCc3cccnc3)cc2[N+](=O)[O-])cc1OC  inhibition in vivo at 50 mg/kg           4
6  CCc1cc(C(=O)N[C@H](C)CCCc2cccnc2)ccc1-c1ccc(OC)c(OC)c1  inhibition in vivo at 50 mg/kg          23
7  COc1ccc(-c2ccc(C(=O)N[C@H](C)CCCc3cccnc3)cc2)cc1OC  inhibition in vivo at 50 mg/kg          29
8  COc1ccc(-c2ccc(C(=O)N[C@H](C)CCCc3cccnc3)cc2[N+](=O)[O-])cc1OC  inhibition in vivo at 50 mg/kg          36
9  CCCCc1cc(C(=O)N[C@H](C)CCCc2cccnc2)ccc1-c1ccc(OC)c(OC)c1  inhibition in vivo at 50 mg/kg          55
